meta.source: PubChem BioAssay (NCI)

system: NCI-H522 lung; test: NCI tumour cell line growth inhibition, 48 h
assay-metric: TGI

>>> observed_value("CC1(C)C2CCC(=O)C1C(OCc1ccccc1)C2 (stereo not given)")
"> 100 µM"
>>> observed_value("O=C1CCN(CCC(F)(F)C(F)(F)C(F)(F)C(F)(F)C(F)(F)C(F)(F)F)C(=S)N1CCC(F)(F)C(F)(F)C(F)(F)C(F)(F)C(F)(F)C(F)(F)F")
"> 100 µM"
>>> observed_value("O=C1C=C(Nc2cccnc2)c2ccccc2C1=O")
"15.5 µM"

Lab note: need TGI with NCI-H522 lung for entry CC1(C)OC(CCC#N)CN1C(=O)OCc1ccccc1 (stereo not given) , please look it up.
> 100 µM

Lab note: need TGI with NCI-H522 lung for entry O=C1c2ccccc2C(=O)c2c1ccc(O)c2O , please look it up.
> 100 µM

----------
The entries below come with measured TGI values attached.
test system: CCRF-CEM leukemia; assay: NCI tumour cell line growth inhibition, 48 h
Where a SMILES comes first, the peptide text is derived from it. [ ]: non-standard residue; d: D form. The star is where a group is joined. Phe(2-OMe) = COc1ccccc1C[CH](N)C(=O)O; Cbz = O=C(OCc1ccccc1)*; OBn = c1ccc(CO*)cc1

>>> observed_value("CC1(C)CC(/C=C2/OC(=O)c3ccccc32)=C(C(N)=O)C(=O)O1")
"> 100 µM"
>>> observed_value("O=C(O)c1ccccc1NS(=O)(=O)c1ccc([N+](=O)[O-])cc1")
"> 100 µM"
>>> observed_value("CCCCNC(=O)NNC(=O)c1cc(/C=C/c2cccc([N+](=O)[O-])c2)ncn1")
"> 100 µM"
>>> observed_value("COC(=O)C(Cc1ccccc1OC)NC(=O)C(CC(=O)OCc1ccccc1)NC(=O)OCc1ccccc1 (stereo unspecified) (Cbz-Asp(OBn)-[Phe(2-OMe)]-OMe; configuration not given here)")
"> 100 µM"
>>> observed_value("CC(C)CC(=O)[O-].CC(C)CC(=O)[O-].N.N.N.N.[Co+3].[O-][Cl+3]([O-])([O-])O.[O-][Cl+3]([O-])([O-])[O-]")
"> 100 µM"

Lab note: need TGI with CCRF-CEM leukemia for entry NC(N)=NS(=O)(=O)c1ccc(NC(=O)c2cccc3cc4ccccc4nc23)cc1 , please look it up.
> 100 µM

Lab note: need TGI with CCRF-CEM leukemia for entry COc1ccc(C=C2C(=O)NC(=S)NC2=O)c2ccccc12 , please look it up.
> 100 µM

Lab note: need TGI with CCRF-CEM leukemia for entry Cc1ccc2cc3cccc(C(=O)NCCN(C)C)c3nc2c1 , please look it up.
5.54 µM

Lab note: need TGI with CCRF-CEM leukemia for entry Cc1cc(C)c(-n2c(-c3ccccc3)cs/c2=N\N=C2C=C(C(C)(C)C)C(=O)C(C(C)(C)C)=C2)c(C)c1 , please look it up.
> 100 µM

Lab note: need TGI with CCRF-CEM leukemia for entry CCC1(CN(C)C)CC/C(=C\c2ccc(OC)cc2)C1=O (stereo unspecified) , please look it up.
> 100 µM

Lab note: need TGI with CCRF-CEM leukemia for entry CCOC(=O)C#Cc1c(C(=O)OCC)nnn1Cc1ccc(C(F)(F)F)cc1 , please look it up.
4.92 µM

Lab note: need TGI with CCRF-CEM leukemia for entry Cc1oc2nc[nH]c(=O)c2c1C(=O)/C=C/c1ccc(Br)cc1 , please look it up.
30.6 µM

Lab note: need TGI with CCRF-CEM leukemia for entry COc1nc2ncc([C@@H](O)[C@H](O)CO)nc2c(=O)n1C , please look it up.
> 100 µM

Lab note: need TGI with CCRF-CEM leukemia for entry CC1(C)OC(CCC#N)CN1C(=O)OCc1ccccc1 (stereo unspecified) , please look it up.
> 100 µM

Lab note: need TGI with CCRF-CEM leukemia for entry O=C(O)C1(Cc2ccccc2)Cc2ccccc2C1 , please look it up.
> 100 µM

Lab note: need TGI with CCRF-CEM leukemia for entry CSc1cc(Cl)c(C)cc1S(=O)(=O)NC(=O)Nc1ccc(Cl)cc1 , please look it up.
39.2 µM

Lab note: need TGI with CCRF-CEM leukemia for entry CN(CCCN(C)Cc1ccc(Cl)c(Cl)c1)CCN1CCCC1 , please look it up.
24.6 µM

Lab note: need TGI with CCRF-CEM leukemia for entry CS(=O)(=O)OCCn1c2c(c3c(O)cccc31)C(=O)c1ccccc1-2 , please look it up.
> 100 µM

Lab note: need TGI with CCRF-CEM leukemia for entry C/C(=C\C(=N\N=C(N)N)c1ccc(Cl)cc1)c1ccc(Cl)cc1 , please look it up.
1.94 µM

Lab note: need TGI with CCRF-CEM leukemia for entry O=c1[nH]nc(NCCc2ccccc2)c2nnn(Cc3ccccc3)c12 , please look it up.
> 100 µM

Lab note: need TGI with CCRF-CEM leukemia for entry C=CCCC1CCCCNC1=S (stereo unspecified) , please look it up.
> 10 µM
